# testedSystem: SHP2-C SH2;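 also: peptide library displayed on the E. coli surface as eCPX fusions, selected cells deep-sequenced, score is each peptide's frequency after selection divided by its frequency in the input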
# assayNotes: SH2 binding enrichment of the phosphorylated peptide, bacterial display (enrichment ratio); higher = better substrate or ligand; peptides without Tyr show the background
readoutType: SH2 binding enrichment
Please state the value as a number alone, without comment.

Measured on SHP2-C SH2, IGERTYGQVYK [CDK13_Y716_G714R] has a documented SH2 binding enrichment of 0.675

Measured on SHP2-C SH2, MEIHAYLKLLE [LMNA_Y376_R377L] has a documented SH2 binding enrichment of 0.714

Measured on SHP2-C SH2, SSSGGYGGGYG [KRT19_Y61_A60G] has a documented SH2 binding enrichment of 0.62

Measured on SHP2-C SH2, FDNSVYQKTTE [LDLR_Y828_P826S] has a documented SH2 binding enrichment of 0.559
